Biological target: recombinant IRAK-4 kinase (Homo sapiens)
Construct: purchased Millipore, USA
Sequence (Q9NWZ3 1-460): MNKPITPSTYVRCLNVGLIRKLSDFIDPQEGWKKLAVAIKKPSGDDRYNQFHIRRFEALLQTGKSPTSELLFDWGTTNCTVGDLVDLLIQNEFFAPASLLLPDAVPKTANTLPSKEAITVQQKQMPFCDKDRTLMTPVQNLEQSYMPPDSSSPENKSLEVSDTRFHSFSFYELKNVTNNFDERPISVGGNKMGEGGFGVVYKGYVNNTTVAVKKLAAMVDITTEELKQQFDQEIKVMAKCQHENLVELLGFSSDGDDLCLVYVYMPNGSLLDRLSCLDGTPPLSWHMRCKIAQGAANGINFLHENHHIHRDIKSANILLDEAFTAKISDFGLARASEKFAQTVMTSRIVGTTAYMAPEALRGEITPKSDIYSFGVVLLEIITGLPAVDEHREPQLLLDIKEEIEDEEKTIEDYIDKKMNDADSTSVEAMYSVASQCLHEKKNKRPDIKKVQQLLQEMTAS
Experiment: IRAK-4 Biochemical Assay (TR-FRET, percent inhibition)
Settings: read-out: % inhibition of IRAK-4 @0.1 μM, compound at 0.1 μM; TR-FRET, 20 μM ATP, 100 nM Biotin Histone H3
The following molecules are listed with their measured inhibition at 0.1 µM values.
observed-property: inhibition at 0.1 µM (%)

1) NCC(=O)O[C@H]1CCN(c2cncc(C(=O)Nc3cc4sc(N5CCOCC5)nc4nc3N3CCCCC3)n2)C1	92
2) Nc1cccc(-c2nc(C(=O)Nc3cc4oc(N5CCOCC5)nc4nc3N3CCCCC3)co2)n1	87
3) NCC(=O)OC1CCN(c2cccc(C(=O)Nc3cc4sc(N5CCOCC5)nc4nc3N3CCOCC3)n2)C1 (stereo not shown)	70
4) O=C(Nc1cc2sc(N3CCOCC3)nc2nc1N1CCCCC1)c1cccc(N2CCC(CO)CC2)n1	93
5) CC(N)C(=O)O[C@H]1CCN(c2cccc(C(=O)Nc3cc4sc(N5CCOCC5)nc4nc3N3CCCCC3)n2)C1 (stereo partly shown)	97
6) NC(=O)C1CCN(c2cccc(C(=O)Nc3cc4sc(N5CCOCC5)nc4nc3N3CCCCC3)n2)CC1	93
7) O=C(Nc1cc2oc(N3CCOCC3)nc2nc1N1CC[C@@H](O)C1)c1cnn2cccnc12	55

* * *

The following molecules are listed with their measured inhibition at 0.1 µM values.
biological target: recombinant IRAK-4 kinase (Homo sapiens, UniProt Q9NWZ3); construct: purchased Millipore, USA; experiment: IRAK-4 Biochemical Assay (TR-FRET, percent inhibition); conditions: read-out: % inhibition of IRAK-4 @0.1 μM, compound at 0.1 μM; TR-FRET, 20 μM ATP, 100 nM Biotin Histone H3
observed-property: inhibition at 0.1 µM

1) Cc1cc(-c2cccc(C(=O)Nc3cc4sc(N5CCOCC5)nc4nc3N3CCC[C@@H](O)C3)n2)ccn1	92%
2) O=C(Nc1cc2sc(N3CCOCC3)nc2nc1C1CC1)c1cnn2ccc(N3CCC[C@H](O)C3)nc12	96%
3) N[C@H]1CCCCC1Nc1ccn2ncc(C(=O)Nc3cc4sc(N5CCOCC5)nc4nc3C3CC3)c2n1 (stereo partly shown) [Example 98, 2,2,2-trifluoroacetate]	94%
4) N[C@H]1CCN(c2cccc(C(=O)Nc3cc4sc(N5CCOCC5)nc4nc3N3CCCCC3)n2)C1	87%

* * *

The following molecules are listed with their measured inhibition at 1 µM values.
Target: recombinant IRAK-4 kinase (Homo sapiens)
Construct: purchased Millipore, USA
Sequence (Q9NWZ3 1-460): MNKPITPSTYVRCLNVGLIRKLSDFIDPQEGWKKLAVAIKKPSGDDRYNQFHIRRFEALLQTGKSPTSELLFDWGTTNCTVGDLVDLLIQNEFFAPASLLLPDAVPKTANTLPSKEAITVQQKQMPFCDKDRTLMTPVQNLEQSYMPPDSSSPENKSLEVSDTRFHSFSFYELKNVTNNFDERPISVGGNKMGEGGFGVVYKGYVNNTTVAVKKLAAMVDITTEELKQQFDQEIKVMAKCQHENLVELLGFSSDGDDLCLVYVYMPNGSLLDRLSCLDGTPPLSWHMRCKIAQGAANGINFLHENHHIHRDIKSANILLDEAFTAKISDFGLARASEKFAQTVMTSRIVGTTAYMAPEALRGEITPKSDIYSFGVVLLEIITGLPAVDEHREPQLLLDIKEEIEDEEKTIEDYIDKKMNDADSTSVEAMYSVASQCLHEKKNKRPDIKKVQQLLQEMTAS
Assay: IRAK-4 Biochemical Assay (TR-FRET, percent inhibition)
Details: read-out: % inhibition of IRAK-4 @ 1 μM, compound at 1 μM; TR-FRET, 20 μM ATP, 100 nM Biotin Histone H3
Where a name gives a salt, the structure may show the parent alone.
observed-property: inhibition at 1 µM

1. O=C(Nc1cc2sc(N3CCOCC3)nc2nc1N1CCCCC1)c1cccc(N2CCCC(CO)C2)n1 (centres unmarked)	96%
2. O=C1CN(c2cccc(C(=O)Nc3cc4sc(N5CCOCC5)nc4nc3N3CCCCC3)n2)CCN1	91%
3. Nc1cccc(-c2nc(C(=O)Nc3cc4sc(N5CCOCC5)nc4nc3N3CCCCC3)co2)n1 [Example 11, hydrochloride]	98%
4. O=C(Nc1cc2sc(N3CCOCC3)nc2nc1N1CCOCC1)c1cccc(N2CCC(O)C2)n1 (centres unmarked)	97%
5. O=C(Nc1cc2sc(N3CCOCC3)nc2nc1N1CCCCC1)c1cccc(N2CCC(CO)C2)n1 (centres unmarked)	99%
6. Cc1cc(-c2nc(C(=O)Nc3cc4oc(N5CCOCC5)nc4nc3OC3CCC(N4CCOCC4)CC3)co2)ccn1 (centres unmarked) [Example 16, hydrochloride]	99%
7. Cc1cc(-c2ncc(C(=O)Nc3cc4sc(N5CCOCC5)nc4nc3N3CCC(O)(CO)CC3)o2)ccn1 [Example 4, hydrochloride]	99%
8. Cc1cc(-c2nc(C(=O)Nc3cc4oc(N5CCOCC5)nc4nc3N3CC[C@@H](OCC4CC4)C3)co2)ccn1	97%
9. NC1CCN(c2ccn3ncc(C(=O)Nc4cc5sc(N6CCOCC6)nc5nc4C4CC4)c3n2)CC1 [Example 99, 2,2,2-trifluoroacetate]	96%
10. O=C(Nc1cc2sc(N3CCOCC3)nc2nc1N1CCCCC1)c1cccc(N2CCC[C@H](O)C2)n1	99%
11. COc1ccc(-c2nc(C(=O)Nc3cc4sc(N5CCOCC5)nc4nc3N3CCCCC3)co2)nc1	95%
12. O=C(Nc1cc2sc(N3CCOCC3)nc2nc1N1CCCCC1)c1cc(N2CC[C@H](O)C2)ccn1	38%
13. Cc1cc(-c2c[nH]c(C(=O)Nc3cc4sc(N5CCOCC5)nc4nc3N3CC[C@@H](O)C3)n2)ccn1 [Example 72, 2,2,2-trifluoroacetate]	97%
14. N[C@H]1CCCCC1Nc1ccn2ncc(C(=O)Nc3cc4sc(N5CCOCC5)nc4nc3C3CC3)c2n1 (some centres unmarked) [Example 98, 2,2,2-trifluoroacetate]	97%

* * *

Target: recombinant IRAK-4 kinase (Homo sapiens)
Construct: purchased Millipore, USA
Sequence (Q9NWZ3 1-460): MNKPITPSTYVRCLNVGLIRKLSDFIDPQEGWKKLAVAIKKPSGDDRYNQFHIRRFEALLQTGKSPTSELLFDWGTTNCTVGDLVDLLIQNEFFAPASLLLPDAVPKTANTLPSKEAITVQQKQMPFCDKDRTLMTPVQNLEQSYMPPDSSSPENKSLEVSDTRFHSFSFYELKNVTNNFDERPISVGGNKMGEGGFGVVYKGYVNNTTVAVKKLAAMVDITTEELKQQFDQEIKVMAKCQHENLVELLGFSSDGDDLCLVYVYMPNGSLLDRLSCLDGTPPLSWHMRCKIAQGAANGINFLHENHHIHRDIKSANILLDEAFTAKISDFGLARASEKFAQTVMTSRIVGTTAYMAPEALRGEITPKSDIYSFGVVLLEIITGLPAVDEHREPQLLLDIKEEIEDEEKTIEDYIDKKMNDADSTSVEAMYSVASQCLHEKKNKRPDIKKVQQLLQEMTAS
Assay: IRAK-4 Biochemical Assay (TR-FRET, percent inhibition)
Conditions: read-out: % inhibition of IRAK-4 @ 1 μM, compound at 1 μM; TR-FRET, 20 μM ATP, 100 nM Biotin Histone H3
Experimental: Compounds were tested for their potential to inhibit IRAK-4 enzyme in a TR-FRET assay using recombinant IRAK-4 kinase from Millipore, USA. The assay buffer was 50 mM Tris-HCl pH 7.5, 20 mM MgCl2, 1 mM EGTA, 2 mM DTT, 3 mM MnCl2 and 0.01% Tween 20.5 ng of IRAK-4 kinase was used for the assay. […] The fluorescence emission at 615 nm and 665 nm were measured at an excitation of 340 nm and the percent inhibition was estimated from the ratio of the fluorescence intensities [(F665/F615)×10000].
Structures can show the parent of a compound that is named as a salt.
The following compounds are listed with their measured inhibition at 1 µM values.
observed-property: inhibition at 1 µM (%)

1) NCC(=O)N[C@H]1CCN(c2cccc(C(=O)Nc3cc4sc(N5CCOCC5)nc4nc3N3CCCCC3)n2)C1 [Example 27]	97
2) O=C(Nc1cc2sc(N3CCOCC3)nc2nc1N1CCC[C@@H](O)C1)c1cccc(N2CCCCC2)n1 [Example 40]	99
3) O=C(Nc1cc2oc(N3CCOCC3)nc2nc1N1CC[C@@H](O)C1)c1cnn2cccnc12 [Example 25]	96
4) O=C(Nc1cc2sc(N3CCOCC3)nc2nc1N1CCCCC1)c1cnn2cccnc12 [Example 104, hydrochloride]	97
